B1: library; a variant is named by its letters at N, in order (parent)
chain: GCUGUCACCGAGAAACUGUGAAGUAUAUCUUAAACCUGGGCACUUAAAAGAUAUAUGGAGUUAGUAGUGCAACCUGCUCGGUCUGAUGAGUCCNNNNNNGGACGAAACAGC

variants of: B1; test: FACS-Seq fitted mean relative fluorescence mCherry/BFP without ligand (log10 relative fluorescence); HEK293T; ligand: cyclic di-GMP (c-di-GMP-II aptamer); higher = higher reporter protein expression; settings: ligand present: no
Please mark rule met if the recorded FACS-Seq fitted mean (log10) is equal to or greater than -0.2, and rule not met if it falls below.

INSERT INTO results (mutant_code, class_label) VALUES
  ('UGGAAU', 'rule met'),
  ('AACGAU', 'rule not met'),
  ('ACGGUU', 'rule not met'),
  ('CCACUU', 'rule not met'),
  ('GAGUAG', 'rule not met'),
  ('UUAGUG', 'rule not met'),
  ('CAUAAU', 'rule not met'),
  ('AAAGGU', 'rule not met'),
  ('UUAUGG', 'rule met'),
  ('AACAGU', 'rule not met'),
  ('CGUGAC', 'rule not met'),
  ('GGACCC', 'rule met'),
  ('GUGAUU', 'rule not met'),
  ('ACAGAG', 'rule not met'),
  ('UCGGCA', 'rule not met'),
  ('UACCCA', 'rule met'),
  ('UUCGUG', 'rule not met'),
  ('CCGUAA', 'rule not met'),
  ('UCAAUA', 'rule not met'),
  ('AAGGAA', 'rule not met'),
  ('CGUUCC', 'rule not met'),
  ('AUGUAU', 'rule met'),
  ('UUCCGU', 'rule met'),
  ('AAUUGG', 'rule met'),
  ('AACAGA', 'rule not met'),
  ('AGGAAA', 'rule not met'),
  ('CGGAGC', 'rule met'),
  ('UAAUGA', 'rule not met'),
  ('CACAUU', 'rule not met'),
  ('AACUGA', 'rule met'),
  ('AGGUAA', 'rule not met'),
  ('GCCGCU', 'rule met'),
  ('AAGGUA', 'rule not met'),
  ('CCUGCC', 'rule not met'),
  ('CGACAA', 'rule not met'),
  ('AAUGAA', 'rule met'),
  ('CACCUA', 'rule not met'),
  ('ACUGUA', 'rule not met'),
  ('CGGCUA', 'rule not met'),
  ('GUUAUA', 'rule met');
